Kindly supply the reported melting point values for the records listed here.

Entry under test: `C(/CN1CCOCC1)=C1/CCCc2c1cnn2-c1ccccc1` . Its melting point was 114 to 116 °C

Entry under test: `FCc1cc(-c2nnc3c4ccccc4c(OCc4nc[nH]n4)nn23)no1` . Its melting point was 266 to 268 °C

Entry under test: CC(=O)Nc1ccc(S(=O)c2ccccc2)cc1 (stereo unspecified) . Its melting point was 135 to 137 °C

Entry under test: `CN(C)CCCOc1cc(F)c(-c2c(Cl)nc3nccn3c2NCC(F)(F)F)c(F)c1` . Its melting point was 52 to 55 °C

Entry under test: `Cc1cc(C)c2c(=O)c(N)coc2c1` . Its melting point was 120 to 121 °C

Entry under test: `CCOC(=O)c1nc2c(=O)[nH]c3cc(F)ccc3n2c1C` . Its melting point was > 250 °C

Entry under test: COc1ccc(C=NC2CCN(c3cc4c(cc3F)c(=O)c(C(=O)O)cn4-c3ccc(F)cc3)C2)cc1 (stereo unspecified) . Its melting point was 270 to 271 °C

Entry under test: `CCCCc1ccc(N2CCN(C(=O)Nc3nc4ccccc4nc3OC)CC2)cc1` . Its melting point was 124 to 126 °C

Entry under test: `CSc1nn2c(N(C)C)cc(C)nc2c1S(=O)(=O)c1ccc(C)cc1` . Its melting point was > 230 °C

Entry under test: `COn1cc(C#N)c(C#N)c1-c1ccc(Cl)cc1` . Its melting point was 126 to 127 °C

Entry under test: `O=C(O)Cn1c(=O)c(=O)[nH]c2cc(Cl)ccc21` . Its melting point was 318 to 319 °C

Entry under test: `COC(=O)c1ccc(NCc2ccccc2)cn1` . Its melting point was 104 to 107 °C

Entry under test: CSC(=Cc1cnn(-c2c(Cl)cc(C(F)(F)F)cc2Cl)n1)S(C)=O (stereo unspecified) . Its melting point was 122 to 123 °C

Entry under test: `CCCc1ccnc2c(=O)[nH]c(-c3ccccc3OCC)nc12` . Its melting point was 134 to 137 °C

Entry under test: `COc1ccccc1S(=O)(=O)c1c(NS(=O)(=O)c2ccc(C(C)(C)C)cc2)ncnc1OCCOc1ncc(Br)cn1` . Its melting point was 208 °C

Entry under test: `O=C(O)c1cccc(N2CCC(N=Cc3ccccc3)=N2)c1` . Its melting point was 185 °C

Entry under test: `O=CN1CCC(Oc2c(F)c(F)c(F)c(F)c2F)CC1` . Its melting point was 32 to 34 °C

Entry under test: `CCc1c(C(=O)C(N)=O)c2c(NCC(=O)O)cccc2n1Cc1ccccc1` . Its melting point was 151 to 157 °C

Entry under test: `CN(c1ccc(O)cc1)c1nc2ccc(Br)cc2o1` . Its melting point was 195 °C

Entry under test: `Nc1cc(N2CCN(C(=O)COc3cccc4ccccc34)CC2)nc(N)n1` . Its melting point was 205 to 210 °C

Entry under test: CC1Cc2c(F)cc(F)cc2C1=O (stereo unspecified) . Its melting point was 68 to 69 °C

###

Kindly supply the reported melting point values for the records listed here.

Entry under test: `Cc1ccc(C(=O)NCCC(=O)OCc2ccccc2)c(NC(=O)CCCCNC(=O)OC(C)(C)C)c1` . Its melting point was 112 to 113 °C

Entry under test: `Cc1nc(NC(=O)c2cnn3c(C(F)(F)F)cc(-c4ccc(C(F)(F)F)cc4)nc23)sc1S(=O)(=O)NC(C)(CO)CO` . Its melting point was 250 °C

Entry under test: `O=C(OO)c1ccc([N+](=O)[O-])cc1` . Its melting point was 251 to 252 °C

Entry under test: `COc1ccc(C2(C#Cc3ccccn3)CCC3(CC2)OCCO3)cc1OC1CCCC1` . Its melting point was 41 to 42 °C

Entry under test: `CCNc1nc(NC(C)C)cc(NS(=O)(=O)c2ccc(N)cc2)n1` . Its melting point was 258 to 259 °C

Entry under test: `CCCc1ccc2oc(C(=O)c3ccncc3)c(C)c2c1O` . Its melting point was 203 to 205 °C

Entry under test: `Cc1nc(N)c2nc(CCO)n(NC3CCOCC3)c2c1C` . Its melting point was 190 to 192 °C

Entry under test: O=C1CCC(N2Cc3cc(CNC(=O)c4ccccc4C(F)(F)F)ccc3C2=O)C(=O)N1 (stereo not given) . Its melting point was 303 to 305 °C

Entry under test: `O=C(O)CCc1oc(Cl)nc1-c1ccc(Cl)cc1` . Its melting point was 169 to 170 °C

Entry under test: `Cc1c(-c2c(C)c3ccccc3n2S(=O)(=O)c2ccccc2)n(S(=O)(=O)c2ccccc2)c2ccccc12` . Its melting point was 224 °C

Entry under test: CC(=O)OC1CSC(Oc2ccc(C)nc2-c2ccncc2)C(OC(C)=O)C1OC(C)=O (stereo not given) . Its melting point was 140 to 144 °C

Entry under test: `Nc1ncnc2c1cnn2Cc1oc2ccc(Br)cc2c(=O)c1-c1ccccc1` . Its melting point was 236 to 240 °C

Entry under test: `CN1Cc2cc3ccc4c(c3c(-c3ccc5c(c3)OCO5)c2C1=O)OCO4` . Its melting point was 242 to 244 °C

Entry under test: `O=C1CCc2c(ccc3cc(O)ccc23)O1` . Its melting point was 189 to 199 °C

Entry under test: `CCOC(=O)NNC(=O)Cc1c(C)cc(C)cc1C` . Its melting point was 184 to 186 °C

Entry under test: `COc1ccc(-c2c(C(=O)CC(C)C)c(CSc3nccn3C)nc3cc(OC)c(OC)cc23)cc1OC` . Its melting point was 152 to 153 °C

Entry under test: OC(CNC1CC1)COc1ccc(-c2nccs2)cc1 (stereo not given) . Its melting point was 100 to 102 °C

Entry under test: `COc1ccc(C(=O)Cc2ccc3c(c2)OCO3)cc1OC` . Its melting point was 110 to 111 °C

Entry under test: `CS(=O)(=O)c1ccc(-c2coc3ccc(-c4nnc(O)o4)cc23)cc1` . Its melting point was 284 to 285 °C

Entry under test: C#CCC(C1=Nc2cnccc2C(=O)C1Nc1ccccc1)N(CCCNC(=O)OCc1ccccc1)C(=O)c1cccc(Cl)c1F (stereo not given) . Its melting point was 100 to 102 °C
